Source of measurements: the supplement of paper PMC10567573

B1: SEPHS2 (parent)
chain: KASGRFGLLQGTSAETSGGLLICL

Variants of: B1
assay.info: protein stability index of a GFP-peptide fusion (GPS, HEK-293T) (PSI 1-6); higher = more stable;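 also: lentivirally expressed fusions sorted by FACS into six bins by GFP to DsRed ratio, PSI derived from sequencing read proportions per bin multiplied by bin number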
condition.parameters: c terminus: a fixed tail appended
Decide by protein stability index: equal to or exceeding 2 means 1, less means -1.

In [3]: df
Out[3]:
                              chain  answer_label
 0  KASGRFGLLQGTSAEMSGGLLICL [T16M]             1
 1   KASGRFGMLQGTSAETSGGLLICL [L8M]             1
 2  KASGRFGLLQGTSAETSGALLICL [G19A]             1
 3  KASGRFGLLQGTSAETSGLLLICL [G19L]             1
 4   KAFGRFGLLQGTSAETSGGLLICL [S3F]            -1
 5   KASGKFGLLQGTSAETSGGLLICL [R5K]             1
 6   KASGRFGCLQGTSAETSGGLLICL [L8C]             1
 7  KASGRFGLLPGTSAETSGGLLICL [Q10P]             1
 8  KASGRFGLLQGTSAETSGGLDICL [L21D]             1
 9   KASGRQGLLQGTSAETSGGLLICL [F6Q]             1
10   KASGRFTLLQGTSAETSGGLLICL [G7T]            -1
11  KASGRFGLLQGTSAETSGGLLIQL [C23Q]            -1
12  KASGRFGLLQGTSAETSGGLLIKL [C23K]            -1
13   KASGRMGLLQGTSAETSGGLLICL [F6M]             1
14   KARGRFGLLQGTSAETSGGLLICL [S3R]            -1
15   KASGRFWLLQGTSAETSGGLLICL [G7W]             1
16   KASGRTGLLQGTSAETSGGLLICL [F6T]             1
17  KASGRFGLLQGTSAETSGGLLECL [I22E]             1
18   TASGRFGLLQGTSAETSGGLLICL [K1T]            -1
19  KASGRFGLLVGTSAETSGGLLICL [Q10V]             1
20   KASGRFGILQGTSAETSGGLLICL [L8I]             1
21  KASGRFGLLQGTSTETSGGLLICL [A14T]            -1
22  KASGRFGLLQGTSAETSGGLLKCL [I22K]             1
23  KASGRFGLLQGTSAETSGGLLICD [L24D]             1
24   KASGIFGLLQGTSAETSGGLLICL [R5I]             1
25  KASGRFGLLIGTSAETSGGLLICL [Q10I]             1
26  KASGRFGLLQQTSAETSGGLLICL [G11Q]             1
27   KASGRFKLLQGTSAETSGGLLICL [G7K]             1
28   KASKRFGLLQGTSAETSGGLLICL [G4K]             1
29  KASGRFGLLQGTSAETSGGLLICY [L24Y]             1
30  KASGRFGLLQGTSAWTSGGLLICL [E15W]            -1
31   LASGRFGLLQGTSAETSGGLLICL [K1L]             1
32   KASGRVGLLQGTSAETSGGLLICL [F6V]            -1
33   KASGRWGLLQGTSAETSGGLLICL [F6W]             1
34  KASGRFGLLQGTSARTSGGLLICL [E15R]            -1
35  KASGRFGLLQGTSAETWGGLLICL [S17W]             1
36  KASGRFGLLQGTSATTSGGLLICL [E15T]             1
37   CASGRFGLLQGTSAETSGGLLICL [K1C]             1
38  KASGRFGLLQGTSAETSGGLLICP [L24P]             1
39   KASGREGLLQGTSAETSGGLLICL [F6E]             1
40   KASGFFGLLQGTSAETSGGLLICL [R5F]             1
41  KASGRFGLLQGTSAESSGGLLICL [T16S]            -1
42  KASGRFGLLQGTSAETSGGLKICL [L21K]            -1
43  KASGRFGLLQGTSAETSGYLLICL [G19Y]            -1
44  KASGRFGLLQGTSQETSGGLLICL [A14Q]             1
45   KASGRFGLEQGTSAETSGGLLICL [L9E]             1
46   DASGRFGLLQGTSAETSGGLLICL [K1D]             1
47  KASGRFGLLQGTSAETSGGLLHCL [I22H]             1
48   GASGRFGLLQGTSAETSGGLLICL [K1G]            -1
49  KASGRFGLLQGTSAETSGGSLICL [L20S]            -1
50   SASGRFGLLQGTSAETSGGLLICL [K1S]             1
51  KASGRFGLLQGTKAETSGGLLICL [S13K]             1
52   KASGRIGLLQGTSAETSGGLLICL [F6I]             1
53  KASGRFGLLQGTSAETSGGLLICR [L24R]             1
54   KASGRLGLLQGTSAETSGGLLICL [F6L]             1
55   KASARFGLLQGTSAETSGGLLICL [G4A]             1
56   KASGRFHLLQGTSAETSGGLLICL [G7H]             1
57   KASGRFGFLQGTSAETSGGLLICL [L8F]             1
58   KASGRFNLLQGTSAETSGGLLICL [G7N]             1
59  KASGRFGLLQGTSAETSGGLMICL [L21M]             1
60   KASGRFLLLQGTSAETSGGLLICL [G7L]             1
61  KASGRFGLLQGTSAETSGGLLICA [L24A]            -1
62  KASGRFGLLQGTSAETSGGQLICL [L20Q]             1
63  KASGRFGLLQGTSAETSGRLLICL [G19R]             1
64  KASGRFGLLQGTSAETSGGLQICL [L21Q]             1
65  KASGRFGLLQGTSAETSGGHLICL [L20H]             1
66   KWSGRFGLLQGTSAETSGGLLICL [A2W]             1
67  KASGRFGLLQGTSAETSGGLYICL [L21Y]            -1
68   KAEGRFGLLQGTSAETSGGLLICL [S3E]             1
69  KASGRFGLLQGESAETSGGLLICL [T12E]             1
70  KASGRFGLLQGTSAETSPGLLICL [G18P]             1
71  KASGRFGLLQGTSAETSGGELICL [L20E]            -1
72  KASGRFGLLQGTSAETSGGLLGCL [I22G]             1
73  KASGRFGLLQGTSHETSGGLLICL [A14H]             1
74  KASGRFGLLQGTSAETSGGNLICL [L20N]             1
75   WASGRFGLLQGTSAETSGGLLICL [K1W]             1
76   KVSGRFGLLQGTSAETSGGLLICL [A2V]             1
77   KASGAFGLLQGTSAETSGGLLICL [R5A]             1
78  KASGRFGLLQGTSAETSGGALICL [L20A]             1
79  KASGRFGLLQGTSEETSGGLLICL [A14E]             1
80   KASGRFSLLQGTSAETSGGLLICL [G7S]             1
81  KASGRFGLLQGTSAETSGGLLICT [L24T]             1
